# MEASURED ON: Gal4DBD/AaEcR (DEF) (Aedes aegypti, UniProt P49880)
# Construct: The wildtype D, E, and F domains from mosquito Aedes aegypti EcR; expressed in transfected cells; host or cells: 3T3 cells
# Sequence (P28704 286-520 A311G/G315S/G445S/I449V): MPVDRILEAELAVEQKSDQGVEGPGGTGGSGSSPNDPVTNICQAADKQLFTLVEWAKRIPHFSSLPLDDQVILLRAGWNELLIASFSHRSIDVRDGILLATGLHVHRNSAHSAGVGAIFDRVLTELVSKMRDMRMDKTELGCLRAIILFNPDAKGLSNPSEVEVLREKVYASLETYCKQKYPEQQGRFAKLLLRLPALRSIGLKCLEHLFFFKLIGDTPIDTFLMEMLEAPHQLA
# Sequence (P49880 405-776): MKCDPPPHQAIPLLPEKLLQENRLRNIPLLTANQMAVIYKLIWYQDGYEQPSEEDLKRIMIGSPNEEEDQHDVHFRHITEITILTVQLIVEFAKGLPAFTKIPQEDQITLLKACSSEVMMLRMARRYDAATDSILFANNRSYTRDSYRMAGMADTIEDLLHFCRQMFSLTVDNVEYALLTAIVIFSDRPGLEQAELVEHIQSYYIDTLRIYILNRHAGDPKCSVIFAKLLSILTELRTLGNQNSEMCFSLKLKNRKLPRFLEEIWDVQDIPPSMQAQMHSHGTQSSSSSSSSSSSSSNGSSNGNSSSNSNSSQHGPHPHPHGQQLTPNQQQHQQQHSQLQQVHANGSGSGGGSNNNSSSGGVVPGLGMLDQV
# ASSAY NOTES: cell-based
# Type: cell-based
# CONDITION CONTEXT: 33 μM; 3T3 cells; 48 h; average of two wells
Please use T whenever Fold Induction Average, AA_3T3V1 Assay 33 μM is not below 30 fold, and F whenever it is.

1) COc1cccc(C(=O)N2c3ccccc3[C@@H](Nc3ccccc3)C[C@@H]2C)c1 (relative stereo) [Compound I-81]
F
2) C[C@H]1C[C@H](Nc2ccc(F)cc2)c2cc(F)ccc2N1C(=O)c1ccccc1C(F)(F)F (relative stereo) [Compound I-78]
T

Moving on to the next compound.
Please check the record Cc1ccc(N[C@H]2C[C@H](C)N(C(=O)c3ccccc3C(F)(F)F)c3ccc(C)cc32)cc1 (relative stereo) [Compound I-74] and state if its Fold Induction Average, AA_3T3V1 Assay 33 μM is at or above 30 fold.
F

====

Fold Induction Average, AA_3T3V1 Assay 33 μM values by entry
# MEASURED ON: Gal4DBD/AaEcR (DEF) (Aedes aegypti, UniProt P49880)
# Construct: The wildtype D, E, and F domains from mosquito Aedes aegypti EcR; expressed in transfected cells; host or cells: 3T3 cells
# ASSAY NOTES: cell-based
# Format: cell-based
# CONDITION CONTEXT: 33 μM; 3T3 cells; 48 h; average of two wells
# Procedure: 3T3 cells were trypsinized and plated at 2.5×10^3 cells/well on a 96-well plate. After incubation for 24 h at 37° C. under 5% CO2, cells were transfected with the Gal4DBD/AaEcR (DEF) gene expression cassette and the reporter plasmid, pFRLuc, containing a 5× GAL4 response element and the firefly luciferase gene in serum free media using Superfect (Qiagen). After transfection for 4 h at 37° C., the cells were treated with ligand in serum media. […] Single dose testing was performed at 33 μM.
Give the value in fold but do not write fold after it.

Sample answers from the record:
1. Cc1ccc(NC2CC(C)N(C(=O)c3ccno3)c3ccc(C)cc32)cc1 (stereo not drawn)
33
2. Cc1ccc(C(=O)N2c3cc(Cl)ccc3C(Nc3ccc(F)cc3)CC2C)cc1F (mixture of isomers)
19
3. Cc1ccc(NC(=O)N2c3ccc(C)cc3[C@@H](Nc3ccc(C)cc3)C[C@@H]2C)cc1 (relative stereo)
3
4. COc1ccc(C(=O)N2c3ccc(C)cc3[C@H](Nc3ccc(C)cc3)C[C@@H]2C)cc1 (stereo in doubt)
1
5. C[C@H]1C[C@H](Nc2ccccc2)c2ccccc2N1C(=O)c1ccc(C(C)(C)C)cc1 (relative stereo)
39

Record request: Fold Induction Average, AA_3T3V1 Assay 33 μM value, item C[C@H]1C[C@H](Nc2ccc(F)cc2)c2cc(F)ccc2N1C(=O)Nc1cccc(Cl)c1 (relative stereo)
1414

Request the reported Fold Induction Average, AA_3T3V1 Assay 33 μM associated with C[C@H]1C[C@H](Nc2ccccc2)c2ccccc2N1C(=O)c1ccccc1C(F)(F)F (relative stereo)
2

Data request, read-out Fold Induction Average, AA_3T3V1 Assay 33 μM, for COc1ccccc1C(=O)N1c2ccc(F)cc2C(Nc2ccc(F)cc2)CC1C (stereo not drawn)
4

Return reported Fold Induction Average, AA_3T3V1 Assay 33 μM; argument: CCCCCC(=O)N1c2ccccc2C(N(C(=O)c2ccccc2F)c2ccccc2)CC1C (stereo not drawn)
1

Given CC1CC(Nc2ccccc2)c2ccccc2N1C(=O)c1ccnc(Cl)c1 (stereo not drawn) , state its recorded Fold Induction Average, AA_3T3V1 Assay 33 μM.
1053

Requested read-out: Fold Induction Average, AA_3T3V1 Assay 33 μM. Entry: CC1CC(Nc2ccccc2)c2ccccc2N1C(=O)c1ccc(I)cc1 (stereo not drawn)
401

Suppose we examine the compound Cc1ccc(C(=O)N2c3ccccc3[C@@H](Nc3ccccc3)C[C@@H]2C)cc1F (relative stereo) ; what Fold Induction Average, AA_3T3V1 Assay 33 μM value has been reported?
376

Name the reported Fold Induction Average, AA_3T3V1 Assay 33 μM value associated with the compound CCNC(=O)N1c2ccccc2C(Nc2ccccc2)CC1C (stereo not drawn)
12

// lookup Fold Induction Average, AA_3T3V1 Assay 33 μM for CC1CC(Nc2ccccc2)c2ccccc2N1C(=O)c1cccs1 (stereo not drawn)
5

Looking for the measured Fold Induction Average, AA_3T3V1 Assay 33 μM of COC(=O)c1ccc(C(=O)N2c3ccc(F)cc3C(Nc3ccc(F)cc3)CC2C)cc1 (stereo not drawn) [Compound I-37] , can you help?
37

====

# System: GAL4 DBD-CfEcR(DEF)/VP16AD-MmRXRE
# CONDITION CONTEXT: CHO 13B3 clone, 48 h, average of two wells
# Procedure: GAL4 DBD-CfEcR(DEF)/VP16AD-MmRXRE: The wild-type D, E, and F domains from spruce budworm Choristoneura fumiferana EcR (“CfEcR-DEF”; SEQ ID NO: 1) were fused to a GAL4 DNA binding domain (“Gal4DBD1-147”; nucleotides 31 to 471 of SEQ ID NO: 2) and placed under the control of the SV40e promoter of pM vector (PT3119-5, Clontech, Palo Alto, Calif.). […] Luciferase reporter gene expression was measured 48 h after cell treatment using Bright-Glo™ Luciferase Assay System from Promega (E2650). […]
ENDPOINT: Fold Induction Average, 13B3V1 Assay 33 μM (fold)
Dear colleague, please return just the value in fold, with no unit written.

1) Cc1ccc(NC2CC(C)N(C(=O)c3cccc([N+](=O)[O-])c3)c3ccc(C)cc32)cc1 (stereo not drawn) [Compound I-154]
4
2) CC1CC(Nc2ccccc2)c2ccccc2N1C(=O)COc1ccc(Cl)cc1 (stereo not drawn) [Compound I-180]
1
3) Cc1ccc(N(C(=O)c2ccc3c(c2)OCO3)C2CC(C)N(C(=O)c3ccc4c(c3)OCO4)c3ccc(C)cc32)cc1 (stereo not drawn) [Compound I-194]
1

Would you kindly share the measured Fold Induction Average, 13B3V1 Assay 33 μM for CC1CC(N(C(=O)c2cccc(Br)c2)c2ccccc2)c2ccccc2N1C(=O)c1cccc(O)c1 (stereo not drawn) [Compound I-166] ?
2

Item COc1cccc(N(C(C)=O)C2CC(C)N(C(=O)c3ccccc3)c3ccccc32)c1 (stereo not drawn) [Compound I-140] has what recorded Fold Induction Average, 13B3V1 Assay 33 μM?
2

I am curious: what Fold Induction Average, 13B3V1 Assay 33 μM value has been reported for Cc1ccc(C(=O)N2c3ccccc3[C@@H](Nc3ccccc3)C[C@@H]2C)cc1F (relative stereo) [Compound I-16] ?
1

====

# MEASURED ON: Gal4DBD/AaEcR (DEF) (Aedes aegypti)
# Construct: The wildtype D, E, and F domains from mosquito Aedes aegypti EcR; expressed in transfected cells; host or cells: 3T3 cells
# ASSAY NOTES: cell-based
# Type: cell-based
# CONDITION CONTEXT: 33 μM; 3T3 cells; 48 h; average of two wells
Entries and their measured Fold Induction Average, AA_3T3V1 Assay 33 μM follow.
Express the result in fold but write the number alone.

1) C[C@H]1C[C@H](Nc2ccccc2)c2ccccc2N1C(=O)c1ccccc1 (relative stereo) [Compound I-67]
20
2) Cc1ccc(C(=O)N2c3c(C)cccc3C(Nc3ccccc3C)CC2C)cc1 (stereo not shown) [Compound I-187]
1
3) Cc1ccc(NC2CC(C)N(C(=O)c3ccc(Cl)cc3)c3ccc(C)cc32)cc1 (stereo not shown) [Compound I-32]
1

Name the reported Fold Induction Average, AA_3T3V1 Assay 33 μM value associated with the compound C[C@H]1C[C@H](Nc2ccc(F)cc2)c2cc(F)ccc2N1C(=O)Nc1ccccc1 (relative stereo) [Compound I-221]
1027

# query: Fold Induction Average, AA_3T3V1 Assay 33 μM of entry COc1ccc(C(=O)N2c3ccc(F)cc3C(Nc3ccc(F)cc3)CC2C)cc1 (stereo not shown) [Compound I-101]
561

For Cc1ccc(C(=O)N2c3ccc(F)cc3[C@@H](Nc3ccc(F)cc3)C[C@@H]2C)cc1F (relative stereo) [Compound I-12] , what is its reported Fold Induction Average, AA_3T3V1 Assay 33 μM?
504

Which value of Fold Induction Average, AA_3T3V1 Assay 33 μM has been reported for COc1cccc(C(=O)N2c3ccc(F)cc3C(Nc3ccc(F)cc3)CC2C)c1C (stereo not shown) [Compound I-58] in the records?
124

====

# MEASURED ON: Gal4DBD/AaEcR (DEF) (Aedes aegypti, UniProt P49880)
# Construct: The wildtype D, E, and F domains from mosquito Aedes aegypti EcR; expressed in transfected cells; host or cells: 3T3 cells
# ASSAY NOTES: cell-based
# Type: cell-based
# CONDITION CONTEXT: 33 μM; 3T3 cells; 48 h; average of two wells
ENDPOINT: Fold Induction Average, AA_3T3V1 Assay 33 μM (fold)
State just the number; it will be interpreted in fold.

Examples with answers:
1. COc1ccc(C=CC(=O)N2c3ccccc3C(N(C(C)=O)c3ccccc3)CC2C)cc1 (stereo not shown) [Compound I-150]
1
2. Cc1ccc(N[C@H]2C[C@H](C)N(C(=O)c3ccc(C(F)(F)F)cc3)c3ccc(C)cc32)cc1 (relative stereo) [Compound I-76]
741
3. CC1CC(Nc2ccccc2)c2ccccc2N1C(=O)c1cccc([N+](=O)[O-])c1 (stereo not shown) [Compound I-158]
207

Let's switch to this compound now.
Which measured Fold Induction Average, AA_3T3V1 Assay 33 μM value corresponds to C[C@H]1C[C@@H](Nc2ccccc2)c2ccccc2N1C(=O)c1ccc(Cl)cc1 (relative stereo) [Compound I-29] ?
61
